system: Mycobacterium tuberculosis; experiment: Antimycobacterial activity against Mycobacterium tuberculosis H37Rv ATCC 27294 by MABA method; assay type: functional
Can you tell me MIC for the items I'm about to list?
Quote the value and follow it with the unit of measurement.

Solved cases (7 shown):
| Compound | Target Of Assay | MIC |
| --- | --- | --- |
| CCO/N=C1/CN(c2c(F)cc3c(=O)c(C(=O)O)cn([C@@H]4C[C@@H]4F)c3c2Cl)CC1CN (stereo partly drawn) | Mycobacterium tuberculosis | 4 µg/mL |
| CCO/N=C1/CN(c2nc3c(cc2F)c(=O)c(C(=O)O)cn3[C@@H]2C[C@@H]2F)[C@@H]1CN | Mycobacterium tuberculosis | 4 µg/mL |
| NC[C@H]1/C(=N\OCc2ccccc2)CN1c1cc2c(cc1F)c(=O)c(C(=O)O)cn2[C@@H]1C[C@@H]1F | Mycobacterium tuberculosis | 0.5 µg/mL |
| CCO/N=C1/CN(c2nc3c(cc2F)c(=O)c(C(=O)O)cn3[C@@H]2C[C@@H]2F)[C@H]1CN | Mycobacterium tuberculosis | 1 µg/mL |
| NCC1CN(c2c(F)cc3c(=O)c(C(=O)O)cn([C@@H]4C[C@@H]4F)c3c2Cl)C/C1=N/OCc1ccccc1 (stereo partly drawn) | Mycobacterium tuberculosis | 16 µg/mL |
| CO/N=C1/CCN(c2c(F)cc3c(=O)c(C(=O)O)cn([C@@H]4C[C@@H]4F)c3c2Cl)CC1N (stereo partly drawn) | Mycobacterium tuberculosis | 16 µg/mL |
| CCO/N=C1/CN(c2cc3c(cc2F)c(=O)c(C(=O)O)cn3[C@@H]2C[C@@H]2F)CC1CN (stereo partly drawn) | Mycobacterium tuberculosis | 0.25 µg/mL |

Now consider the entry below.
Entry CO/N=C1/CN(c2c(F)cc3c(=O)c(C(=O)O)cn([C@@H]4C[C@@H]4F)c3c2OC)[C@H]1CN needs its MIC filled in; supply it. 0.5 µg/mL

---

Consider the following compounds; for each one, report its MIC.
tested on: Escherichia coli; experiment: Antibacterial activity against Escherichia coli ATCC 25922 after 18 to 24 hrs by standard twofold serial dilution method; format: functional

| Compound | Result |
| --- | --- |
| CO/N=C1/CN(c2c(F)cc3c(=O)c(C(=O)O)cn([C@@H]4C[C@@H]4F)c3c2OC)[C@H]1CN | 0.25 µg/mL |
| CCO/N=C1/CN(c2c(F)cc3c(=O)c(C(=O)O)cn([C@@H]4C[C@@H]4F)c3c2OC)CC1CN (stereo partly drawn) | 4 µg/mL |
| CO/N=C1/CN(c2c(F)cc3c(=O)c(C(=O)O)cn([C@@H]4C[C@@H]4F)c3c2Cl)CC1CN (stereo partly drawn) | 0.125 µg/mL |
| CCO/N=C1/CN(c2cc3c(cc2F)c(=O)c(C(=O)O)cn3[C@@H]2C[C@@H]2F)CC1CN (stereo partly drawn) | 0.06 µg/mL |

For every item in the list below, what is its measured MIC?
1. C[C@H]1COc2c(N3CCN(C)CC3)c(F)cc3c(=O)c(C(=O)O)cn1c23.C[C@H]1COc2c(N3CCN(C)CC3)c(F)cc3c(=O)c(C(=O)O)cn1c23.O [LEVOFLOXACIN]
2. CO/N=C1/CN(c2cc3c(cc2F)c(=O)c(C(=O)O)cn3[C@@H]2C[C@@H]2F)[C@H]1CN
3. CCO/N=C1/CN(c2nc3c(cc2F)c(=O)c(C(=O)O)cn3[C@@H]2C[C@@H]2F)CC1CN (stereo partly drawn)
4. CCO/N=C1/CN(c2cc3c(cc2F)c(=O)c(C(=O)O)cn3[C@@H]2C[C@@H]2F)[C@@H]1CN

["< 0.008 µg/mL", "< 0.008 µg/mL", "< 0.008 µg/mL", "0.06 µg/mL"]
